Each entry below carries its reported GI50.
# Test system: A549
# TEST_DESCRIPTION: NCI tumour cell line growth inhibition, 48 h
The source made the active and inactive calls. Cut-off read from the data, not from the text of the source: active = GI50 up to about 1.1 µM and inactive = higher.

MOLECULE	GI50
O=C(/C=N/c1ccccc1[S-])c1ccco1.O=C(/C=N/c1ccccc1[S-])c1ccco1.[Zn+2]	3.98 µM (inactive)
CC(C)(C)OC(=O)NC(Cc1ccc(O)cn1)C(N)=O (centres undefined)	> 100 µM (inactive)
O=[N+]([O-])c1ccc(/C=C/c2ccc(/N=N/c3ccc(/C=C/c4ccc([N+](=O)[O-])cc4S(=O)(=O)O)c(S(=O)(=O)O)c3)cc2S(=O)(=O)O)c(S(=O)(=O)O)c1	> 100 µM (inactive)
O=C(c1ccccc1)c1nnn(Cc2cccc(Cl)c2)c1C(=O)c1ccccc1	25.2 µM (inactive)
O=S(=O)(c1ccccc1)C1CN2OC1(S(=O)(=O)c1ccccc1)CC2c1ccc(Br)cc1 (centres undefined)	> 100 µM (inactive)
C/C(=N\NS(=O)(=O)c1ccc([N+](=O)[O-])cc1)c1ccc[n+]([O-])n1	2.19 µM (inactive)
CCC1=C(c2ccc(OC)cc2)CC[C@]2(CCNC2=O)[C@@H]1C	37.6 µM (inactive)
COC[C@@H]1[C@H]2OC(C)(C)O[C@H]2C(=O)N1C(=O)c1ccc(OC)cc1	> 100 µM (inactive)
COc1ccc2c(c1)CC[C@@H]1[C@@H]2CC[C@]2(C)/C(=N/OCCN3CCCCC3)CC[C@@H]12	5.35 µM (inactive)
NCCC1([N+](=O)[O-])C=CN=CC1 (centres undefined)	> 100 µM (inactive)
[O-]c1c2c(nn1-c1ccc(F)cc1)c1ccccc1c[n+]2Cc1ccccc1	12.8 µM (inactive)
O=C(O)CNCP(=O)(O)O [GLYPHOSATE]	> 100 µM (inactive)
O=C1C=CC[C@H](/C=C/C[C@@H](O)C[C@H](O)/C=C/c2ccccc2)O1	15.8 µM (inactive)
O=C(/C=C/c1ccccc1)c1ccccc1	> 10 µM (inactive)
CC(C)Oc1c(-c2c(OC(C)C)c(=O)c2=O)c(=O)c1=O	> 100 µM (inactive)
Cn1c2c3ccc(Cl)cc3nc-2c(Cl)c2ccccc21	27.3 µM (inactive)
CN(CC(=O)O)S(=O)(=O)c1ccc(Cl)cc1	> 100 µM (inactive)
C/C=C1/CN2CC[C@@H]3c4ccccc4N4[C@H](C(=O)OC)[C@H]1C[C@H]2[C@]34/C=C/C1=COC[C@@H]2[C@H]1C[C@H]1c3c(c4ccccc4n3C)C[C@@H]2N1C	4.16 µM (inactive)
OC(Cc1ccccc1)(Cc1ccccc1)c1ccccc1	19.5 µM (inactive)

----------
# System: OVCAR-4
# TEST_DESCRIPTION: NCI tumour cell line growth inhibition, 48 h
The source made the active and inactive calls. No stated cut-off is given here; in the data, active = GI50 up to about 1.1 µM and inactive = higher.
Classes used: active, inactive

COMPOUND	TESTED_SYSTEM	LABEL_CLASS
CCN(C(=O)N[C@@H](C)C(=O)N[C@@H](Cc1ccccc1)C(=O)OC)c1ccccc1	OVCAR-4	inactive
O=CN/C=C/c1ccccc1O	OVCAR-4	inactive
CN(O)C(=O)c1ccc(OCc2cccc(Cl)c2)cc1	OVCAR-4	inactive
Cn1c(SCc2c[nH]c3ccccc23)nnc1-c1ccc(Cl)cc1Cl	OVCAR-4	inactive
CC(=O)O[C@H]1CC[C@@]2(C)C(=CC[C@@H]3[C@@H]2CC[C@]2(C)c4c(C)n[nH]c4C[C@@H]32)C1	OVCAR-4	inactive
CCC1=C(c2ccc(OC)cc2)CC[C@]2(CCNC2=O)[C@@H]1C	OVCAR-4	inactive
COc1ccccc1CNCc1nc2ccccc2[nH]1	OVCAR-4	inactive
O=c1[nH]c(=O)n(C2CC(O)C(CO)O2)cc1C#Cc1ccc(C(F)(F)F)cc1 (stereo unspecified)	OVCAR-4	inactive
Cc1nc(C)c(C(=O)NNC(=O)c2ccccc2)cc1C(=O)NNC(=O)c1ccccc1	OVCAR-4	inactive
Cc1c(C#N)c2nnn(-c3ccc(Cl)cc3)c(=O)n2c1-c1ccccc1	OVCAR-4	active
CC(C)(C)c1ccc2c(c1)OCc1n[nH]c(n1)COc1cc(C(C)(C)C)ccc1OCCOCCO2	OVCAR-4	active
CC(=O)Oc1cc(OC(C)=O)c2c(C)cc(=O)oc2c1	OVCAR-4	inactive
O=C1c2ccccc2-c2nc3ccc(O)cc3n21	OVCAR-4	inactive
CCOC(=O)c1c(SC(=O)c2cc(OC)c(OC)c(OC)c2)n(-c2ccccc2)c(=S)n(-c2ccccc2)c1=O	OVCAR-4	inactive
Cn1c2ccccc2n2c(=O)c(-c3ccc(O)cc3)nnc12	OVCAR-4	inactive
O=C1c2ccccc2C(=O)c2c(Nc3cc4c5c(ccc6c7ccc8c9c(cc(Nc%10cccc%11c%10C(=O)c%10ccccc%10C%11=O)c(c3c56)c97)-c3ccccc3C8=O)C(=O)c3ccccc3-4)cccc21	OVCAR-4	inactive
CC(C)/C=N\n1c(N)c(C#N)c(C#N)c1C(C)C	OVCAR-4	inactive
Cc1cccc(NC(=O)C(=O)Cc2nc3ccccc3nc2O)c1C	OVCAR-4	inactive
O=C(C1OC1c1ccc([N+](=O)[O-])cc1)C12CC3CC(CC(C3)C1)C2 (stereo unspecified)	OVCAR-4	inactive
CC(=O)N/N=C1\CC(C)(C)C2CCC1C2 (stereo unspecified)	OVCAR-4	inactive
CC(NC(=O)C(N)CC(=O)O)NC(=O)C1CCC1 (stereo unspecified)	OVCAR-4	inactive
NC1N=Nc2ccccc21 (stereo unspecified)	OVCAR-4	inactive
O=C(Nc1ccccc1-c1n[nH]c(S)nc1=O)C(F)(F)F	OVCAR-4	inactive
CC(NNC(=O)c1cc[n+]([BH2-]C#N)cc1)c1cccc(F)c1 (stereo unspecified)	OVCAR-4	inactive
Cc1cc(C)nc(Nc2nc3cc([N+](=O)[O-])ccc3[nH]2)n1	OVCAR-4	inactive
CCOC(=O)[C@@]12C[C@](/C=C/OC)(O[Si](C)(C)C)[C@@]13c1cc(OC)c(OC)cc1CCN3C(=O)C2=O	OVCAR-4	inactive

Reference source for all entries: ChEMBL document CHEMBL1201862
